// interaction score lookup, one value per entry
# TARGET_OR_TEST_SYSTEM: GCN2_T
# ASSAY_NOTES: two-hybrid library CCmax;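 also: natural log of median RNA to DNA barcode read ratio; higher means stronger binding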
MEASUREMENT_KIND: interaction score

| BINDER | MEASURED_NUMBER |
| --- | --- |
| DEIAALEAEIAALEAKIAALKAENAALEG [4H43-AA] | -1.41 |
| DEIAALEAKIAALKAENAALEAEIAALEG [4H337-AA] | -1.48 |
| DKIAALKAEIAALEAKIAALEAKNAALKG [4H2600-AA] | -1.38 |
| DKNAALEAKIAALEAKIAALEAKIAALEG [4H3365-AA] | -1.79 |
